Ref: PubChem BioAssay (NCI)

test system: SF-539 CNS; test: NCI-60 one-dose screen, 48 h (100 = growth as untreated, 0 = no growth, -100 = all killed); conditions: 10 µM unless noted
Compounds without any hit were thinned out: in the full panel of roughly 83,000, 20% have a hit.
# growth values compiled below
assay-metric: growth (%)

>>> quantitative_readout("CC[C@]12C=CCN3CC[C@]4(C(=C(C(=O)OC)C1)Nc1cc(OC)c(OC(C)=O)cc14)[C@@H]32")
11.2
>>> quantitative_readout("NC(=O)c1c(Br)n(C2OC(CO)C(O)C2O)c2ncnc(N)c12 (stereo not given)")
13.7
>>> quantitative_readout("Clc1cccc(Cl)c1Cl")
100
>>> quantitative_readout("CC(=O)Nc1ccc(NC(=O)c2ccc([As](O)O)cc2)cc1")
88.8
>>> quantitative_readout("CC(C)CCC1(CCCl)C(=O)NC(=O)NC1=O")
100
>>> quantitative_readout("COc1cccc(C=NC(Cc2cnc[nH]2)C(=O)O)c1O (stereo not given)")
93.1
>>> quantitative_readout("C=CC[n+]1ccc(-c2cc[n+](CC=C)cc2)cc1")
101
>>> quantitative_readout("COc1cc(/C=C\\c2cc(OC)c(OC)c(OC)c2)cc(N/C=C\\C(=O)c2cc(OC)c(OC)c(OC)c2)c1OC")
-9.74
>>> quantitative_readout("O=[N+]([O-])c1c(Br)sc(Br)c1[N+](=O)[O-]")
-12.3
>>> quantitative_readout("C[C@@]12CC=C3c4nc(Nc5cccc(O)c5)sc4CC[C@]3(C)[C@H]1CC[C@]1(C)C(=O)CC[C@@H]21")
-41.8
>>> quantitative_readout("C/C(CC(C)(C)N1CC1)=N\\NC(=O)Nc1cccc2ccccc12")
70.3
>>> quantitative_readout("CC(CC1CCCCC1)NCc1ccccc1 (stereo not given)")
103
>>> quantitative_readout("CC(=O)OC1CCC2(C)C(CCC3C2CC(=O)C2(C)C3CC(Sc3ccc(N(CCCl)CCCl)cc3)C2C(C)=O)C1 (stereo not given)")
13.7
>>> quantitative_readout("CCOP(=O)(Nc1ccc2c(c1)/C(=N/NC(N)=S)c1ccccc1-2)OCC")
84.7
>>> quantitative_readout("O=C(O)c1ccc([S-])cc1.[Au+].c1ccc(CN2[CH-]N(Cc3ccccc3)C(c3ccccc3)=C2c2ccccc2)cc1")
-1.4
>>> quantitative_readout("COc1ccc(S(=O)(=O)N(Cc2ccc3c(c2)C=CC(C)(C)O3)c2ccccc2)cc1OC")
97.3
>>> quantitative_readout("CC1(C)N=C(N)N=C(N)N1c1ccc(CCC(=O)Nc2ccc(S(=O)(=O)F)cc2)c(Cl)c1")
11.9
>>> quantitative_readout("Clc1ccc2nnnn2n1")
47
>>> quantitative_readout("CCCCCCCCCCCCCC[P+](CCCCCC)(CCCCCC)CCCCCC")
5.67
>>> quantitative_readout("COC(=O)[C@@H](C)C[C@H](Cc1ccccc1)NC(=O)c1csc([C@@H](C[C@H](C(C)C)N(C)C(=O)[C@@H](NC(=O)[C@H]2CCCN2C)C2CC2)OC(C)=O)n1")
-14.6
>>> quantitative_readout("Nc1cc2nc3ccccc3nc2cc1N")
95.4
>>> quantitative_readout("N#CC1C(C#N)C2CCC1C1C2N1c1ccccc1 (stereo not given)")
104
>>> quantitative_readout("C[C@]12CC[C@H]3[C@@H](CC4SC(N)=NC45C/C(=N/NC(N)=O)CC[C@]35C)[C@@H]1CCC2=O (stereo not given in full)")
87.2
>>> quantitative_readout("O=C1OCC2=C1C(c1ccccc1)c1cc3c(cc1N2)OCO3 (stereo not given)")
4.21
>>> quantitative_readout("COc1cc2c(cc1OCCCn1c(-c3ccccn3)nc3ccccc31)N=C[C@@H]1CCCN1C2=O")
14.3
>>> quantitative_readout("COc1cccc2c1c(C(=O)C(=O)Nc1cc(C)no1)cn2Cc1ccc(F)cc1")
67.2
>>> quantitative_readout("C#C[C@]1(OC(=O)CCCCCC)CC[C@H]2[C@@H]3CCC4=CC(=O)CC[C@@H]4[C@H]3CC[C@@]21C")
47.9
>>> quantitative_readout("CC(=O)Nc1nc2c(s1)CC[C@@]1(C)C2=CC[C@H]2[C@@H]3CC[C@H](O)[C@@]3(C)CC[C@@H]21")
8.5
>>> quantitative_readout("CN[C@]1(c2ccccc2Cl)CCCC[C@H]1NCCCN1CCN(C)CC1")
94.8
>>> quantitative_readout("C=C1C(=O)O[C@H]2[C@H]1CC/C(COC(=O)C(=O)c1cn(Cc3ccccc3)c3ccccc13)=C\\CC[C@@]1(C)O[C@@H]21")
-51.3
>>> quantitative_readout("CC(=O)OC1C(OC/C2=C/C3[C@@H](C(C)C)CC=C(C)[C@@H]3CC(OC(=O)/C=C/c3cn(C)cn3)[C@]3(C)C=C[C@@]2(O)O3)OCC(O)C1O (stereo not given in full)")
11.9
>>> quantitative_readout("COc1ccc(N(CC(=O)NCCC[Te]c2ccccc2)C(=O)CCSC2=C(C)C(=O)c3ccccc3C2=O)cc1")
-62.6
>>> quantitative_readout("C[C@@H]1O[C@@H](O[C@H]2C[C@@H](O)[C@]3(CO)C4C(CC[C@]3(O)C2)[C@@]2(O)CC[C@H](C3=CC(=O)OC3)[C@@]2(C)C[C@H]4O)[C@H](O)[C@H](O)[C@H]1O (stereo not given in full)")
-80.1
>>> quantitative_readout("COc1ccc(C2=CC(c3ccc(OC)c(OC)c3)c3c(c4ccccc4oc3=O)O2)cc1OC (stereo not given)")
-17.8
>>> quantitative_readout("Cn1cc(-c2csc(-c3cn(CCCCN4CCCCC4)c4ccc(F)cc34)n2)c2cccnc21")
75.3
